System: 596521-263-R-J1-PDC complex spheroids, viability % of control;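 note: spheroids exposed to drugs for 7 days before viability reading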
Assay Notes: Anticancer human tumor 596521-263-R-J1-PDC patient-derived soft tissue sarcoma cell line growth inhibition [GQUAD]
Applied Conditions: second compound 0.0316 µM; first compound 0.1 µM; hits give low values
Under this convention, True denotes viability, T/C strictly below 90% and False denotes viability, T/C at or above 90%.

Regarding O=C(NO)c1cnc(N2CCN(S(=O)(=O)c3ccc4ccccc4c3)CC2)nc1 + Cc1cnc(CNC(=O)c2c(=O)c3ccc(N4CCCN(C)CC4)nc3n3c2sc2ccccc23)cn1 , kindly confirm whether its viability, T/C is beneath 90%.
True

Regarding C=CC(=O)N1CCN(c2nc(=O)n(-c3c(C)ccnc3C(C)C)c3nc(-c4c(O)cccc4F)c(F)cc23)C(C)C1 (stereo not given) + Cc1cnc(CNC(=O)c2c(=O)c3ccc(N4CCCN(C)CC4)nc3n3c2sc2ccccc23)cn1 , kindly confirm whether its viability, T/C is beneath 90%.
False

Regarding COc1cc(C2c3cc4c(cc3C(OC3OC5COC(C)OC5C(O)C3O)C3COC(=O)C23)OCO4)cc(OC)c1O (stereo not given) + CN(C)c1ccc(Nc2c3ccc(NC(=O)CCN4CCCC4)cc3nc3cc(NC(=O)CCN4CCCC4)ccc23)cc1 , kindly confirm whether its viability, T/C is beneath 90%.
False

The reported numbers originate from PubChem BioAssay AID2060500.
